This collection of values is drawn from ChEMBL document CHEMBL1154800.

Listed here: items and their measured MIC.
- System: Staphylococcus aureus
- TEST: Antimicrobial activity against Staphylococcus aureus ATCC 6538 after 24 hrs by microplate assay
- Type: functional
- PROTOCOL_CONDITIONS: ATCC 6538, 24 h

[
  {
    "COMPOUND": "O=C1Nc2ccccc2C1(O)Cc1nc2sccn2c1[N+](=O)[O-] (centres undefined)",
    "MIC [µg/mL]": 500
  },
  {
    "COMPOUND": "CC(=O)N1C(=O)C(O)(Cc2nc3sccn3c2[N+](=O)[O-])c2ccccc21 (centres undefined)",
    "MIC [µg/mL]": 31.2
  },
  {
    "COMPOUND": "O=[N+]([O-])c1c(CBr)nc2sccn12",
    "MIC [µg/mL]": 125
  },
  {
    "COMPOUND": "O=[N+]([O-])c1c(CCl)nc2sccn12",
    "MIC [µg/mL]": 125
  }
]
